pIC50 values for Poly [ADP-ribose] polymerase 1 (Homo sapiens, UniProt P09874), compiled from several publications.
pIC50: −log10 of the molar value.
value-kind: pIC50

// below: answered molecules
CCc1cc2ncc(CN3CC4CN(c5ccc(C(=O)NC)nc5)CC4C3)cc2[nH]c1=O (stereo not shown) | 9.10
[2H]C([2H])([2H])NC(=O)c1ccc(N2CCN(Cc3ccc4c([nH]c(=O)c5cc(F)cnc54)c3F)CC2)c(Cl)n1 | 8.26
CCc1cc2ncc(CN3CCN(c4ccc(-c5nnc(C)[nH]5)nc4)[C@@H]4CC[C@@H]43)cc2[nH]c1=O | 9.15

I = CNC(=O)c1ccc(N2CCN(Cc3ccc4nc(C(F)(F)F)c(=O)[nH]c4c3F)CC2)c(Cl)n1
II = CCc1cc2nnc(CN3CCN(c4ccc(C(=O)NC)nc4)C4C[C@H]43)cc2[nH]c1=O (stereo partly shown)
III = CCc1nc2ccc(CN3CCN(c4ccc(C(=O)NC)nc4C)CC3)c(C)c2[nH]c1=O
IV = CNC(=O)c1ccc(N2CCN(Cc3ccc4nc(C(C)(F)F)c(=O)[nH]c4c3F)CC2)c(C)n1
Task: Could you please sort these 4 entries by pIC50 from high to low? # respond with the labels, arranged in the requested order
Result: II, III, IV, I
(II: 9.30, III: 8.30, IV: 7.89, I: 7.37)

====

This section presents IC50 values reported for Poly [ADP-ribose] polymerase 1 (Homo sapiens) in the literature.
value-kind: IC50 (nM)

CNC(=O)c1ccc(N2CCN(Cc3ccc4ncc(=O)[nH]c4c3F)CC2)c(C)n1 | 30
CNC(=O)c1ccc(N2CCN(Cc3ccc4nc(C)c(=O)[nH]c4c3C)CC2)c(Cl)n1 | 3
CNC(=O)c1ccc(N2CCN(Cc3ccc4nc(C)c(=O)[nH]c4c3F)CC2)c(C)n1 | 7
CNC(=O)c1ccc(N2CCN(Cc3cnc4cc(OC)c(=O)[nH]c4c3)[C@@H]3CCC32)cn1 (stereo partly drawn) | 2.3
CCc1cc2nnc(CN3CCN(c4ccc(C(=O)NC)nc4)C4CC[C@H]43)cc2[nH]c1=O (stereo partly drawn) | 1
CNC(=O)c1ccc(N2CCN(Cc3ccc4nc(C)c(=O)[nH]c4c3F)CC2)c(Cl)n1 | 6
CCc1cc2ncc(CN3CC4(C3)CN(c3ccc(C(=O)NC)nc3)C4)cc2[nH]c1=O | 0.78
CNC(=O)c1ccc(N2CCN(Cc3ccc4nc(OC)c(=O)[nH]c4c3F)CC2)c(C)n1 | 11
CNC(=O)c1ccc(N2CCN(Cc3ccc4nc(C5CC5)c(=O)[nH]c4c3F)CC2)c(C)n1 | 5
CNC(=O)c1ccc(N2CCN(Cc3ccc4nc(OC)c(=O)[nH]c4c3F)CC2)c(Cl)n1 | 5

A = CNC(=O)c1ccc(N2CCN(Cc3ccc4nc(C5CC5)c(=O)[nH]c4c3F)CC2)cn1
B = CCc1cc2ncc(CN3CCN(c4ccc(C(=O)NC)nc4)[C@@H]4CC[C@@H]43)cc2[nH]c1=O
Task: Endpoint returns the identifier whose IC50 is numerically larger, either A or B . // return label of chosen record
Result: A

1 = CNC(=O)c1ccc(N2CCN(Cc3ccc4nc(C5CC5)c(=O)[nH]c4c3F)CC2)c(F)n1
2 = CCc1nc2ccc(CN3CCN(c4ccc(C(N)=O)nc4)CC3)c(F)c2[nH]c1=O
Task: Would you let me know which has the greater IC50 value, 1 or 2 ? Refer to your chosen item by its label in the answer.
Result: 1
